Known AC26 of a selection of molecules
system: D54 ERlucT glycosylation luciferase reporter, luminescence, 24 h; experiment: N-linked glycosylation inhibitors, luciferase reporter, dose response, D54 ERlucT cells, luminescence, cherry-picks (AID 624491);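 further: signal gain reflects blocked N-linked glycosylation of a luciferase reporter; actives raise luciferase signal so AC26 marks activators of the reporter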
Assay readout: AC26

[[record]]
structure_as_smiles = "CCN(CC)CCn1c2ccccc2c2cnc(N)c(C#N)c21"
experimental_value = "750 nM"

[[record]]
structure_as_smiles = "COc1cc(/C=C/c2onc(C)c2[N+](=O)[O-])cc(OC)c1OC"
experimental_value = "864 nM"

[[record]]
structure_as_smiles = "COc1ccc(NC(=O)c2cccc3c(-c4ccc(O)c(OC)c4)coc23)cc1"
experimental_value = "13400 nM"

[[record]]
structure_as_smiles = "O=c1[nH]c(=O)n([C@H]2C[C@H](O)[C@@H](CO)O2)cc1I"
experimental_value = "5190 nM"

[[record]]
structure_as_smiles = "O=C(c1cccs1)N1CCC(c2nc3c(nnn3Cc3cccc(Cl)c3)c(=O)[nH]2)CC1"
experimental_value = "217 nM"


---

tested on: D54 ERlucT glycosylation luciferase reporter, luminescence, 24 h; test: N-linked glycosylation inhibitors, luciferase reporter, dose response, D54 ERlucT cells, luminescence, cherry-picks (AID 624491);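 further: signal gain reflects blocked N-linked glycosylation of a luciferase reporter; actives raise luciferase signal so AC26 marks activators of the reporter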
Assay readout: AC26

[[record]]
compound = "COc1ccc(-c2nc(NCCCN(C)C)c3ccccc3n2)cc1"
experimental_value = "2.49 µM"

[[record]]
compound = "Cn1c(=O)n(C)c2cc(S(=O)(=O)N3CCCc4ccccc43)ccc21"
experimental_value = "3.55 µM"

[[record]]
compound = "COc1ccc(S(=O)Cc2ccc(C(=O)N3CCN(c4cccc(C)c4C)CC3)o2)cc1 (stereo unspecified)"
experimental_value = "1.43 µM"

[[record]]
compound = "CCn1ncc(C2=NOC(C(=O)NCc3ccccc3)C2)c1C (stereo unspecified)"
experimental_value = "0.413 µM"

[[record]]
compound = "COc1ccc(CNC(=O)c2cccc3c(-c4cccnc4)coc23)cc1OC"
experimental_value = "2.69 µM"

[[record]]
compound = "Cc1ccc(CSc2ccc3nnc(-c4cccnc4)n3n2)cc1"
experimental_value = "1.17 µM"

[[record]]
compound = "CNc1ncnc(Sc2ccc(Cl)cc2)c1[N+](=O)[O-]"
experimental_value = "4.54 µM"

[[record]]
compound = "COc1ccc(C(=O)/C=C/c2ccc(OC(=O)c3cc(OC)c(OC)c(OC)c3)cc2)cc1"
experimental_value = "3.74 µM"

[[record]]
compound = "O=C(N/N=C/C(Br)=C/c1ccccc1)c1cc(-c2ccco2)[nH]n1"
experimental_value = "5.35 µM"

[[record]]
compound = "Cc1cc(C)nc(SC2CC(=O)N(c3ccc(C)c(C)c3)C2=O)n1 (stereo unspecified)"
experimental_value = "14.3 µM"

[[record]]
compound = "COCCOC(=O)c1[nH]c2c(c1C)C(=O)CC(c1ccco1)C2 (stereo unspecified)"
experimental_value = "3.54 µM"


---

Known AC26 of a selection of compounds
test system: D54 ERlucT glycosylation luciferase reporter, luminescence, 24 h; assay: N-linked glycosylation inhibitors, luciferase reporter, dose response, D54 ERlucT cells, luminescence, cherry-picks (AID 624491);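 further: signal gain reflects blocked N-linked glycosylation of a luciferase reporter; actives raise luciferase signal so AC26 marks activators of the reporter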
Assay readout: AC26

[[record]]
compound = "Cc1cc(NCCCn2ccnc2)n2nc(C)c(-c3ccccc3)c2n1"
assay_readout = "AC26"
experimental_value = "1.17 µM"

[[record]]
compound = "COc1cc(C(=O)NCCOc2cc(C)cc(C)c2)cc(OC)c1OC"
assay_readout = "AC26"
experimental_value = "2.37 µM"

[[record]]
compound = "COc1ccc(C=CC(=O)c2ccc(OC)c(OC)c2O)cc1OC"
assay_readout = "AC26"
experimental_value = "4.39 µM"

[[record]]
compound = "COc1ccccc1C(=O)Nc1nnc(CCc2ccccc2)s1"
assay_readout = "AC26"
experimental_value = "3.72 µM"

[[record]]
compound = "COc1ccc(C=CC(=O)c2c(OC)cc(OC)c(OC)c2O)cc1"
assay_readout = "AC26"
experimental_value = "4.04 µM"

[[record]]
compound = "Cc1ccc(C)c(NC(=O)Cn2nnc(C(=O)NCc3ccco3)c2N)c1"
assay_readout = "AC26"
experimental_value = "9.8 µM"

[[record]]
compound = "Cn1nc(-c2ccc(Cl)cc2)c2cc(C(=O)NCCCN3CCOCC3)sc21"
assay_readout = "AC26"
experimental_value = "4.33 µM"

[[record]]
compound = "O=C1NC(=O)N(Cc2ccccc2)C(=O)/C1=C/C=C/c1ccco1"
assay_readout = "AC26"
experimental_value = "1.08 µM"

[[record]]
compound = "O=C(Nc1ccc(S(=O)(=O)N2CCOCC2)cc1)c1cc(-c2cc(Cl)ccc2O)n[nH]1"
assay_readout = "AC26"
experimental_value = "1.26 µM"

[[record]]
compound = "CC1(C(=O)NCc2ccco2)Cc2c(-c3ccc(C(N)=O)cc3)ccnc2O1 (stereo unspecified)"
assay_readout = "AC26"
experimental_value = "1.39 µM"

[[record]]
compound = "Cc1cccc(/C=N\\Nc2cn[nH]c(=O)c2Cl)c1"
assay_readout = "AC26"
experimental_value = "4.56 µM"

